Overview of reported IC50 across a group of compounds:
Target: hMAT2A (Homo sapiens (Human), UniProt P31153)
Sequence (P31153 whole entry): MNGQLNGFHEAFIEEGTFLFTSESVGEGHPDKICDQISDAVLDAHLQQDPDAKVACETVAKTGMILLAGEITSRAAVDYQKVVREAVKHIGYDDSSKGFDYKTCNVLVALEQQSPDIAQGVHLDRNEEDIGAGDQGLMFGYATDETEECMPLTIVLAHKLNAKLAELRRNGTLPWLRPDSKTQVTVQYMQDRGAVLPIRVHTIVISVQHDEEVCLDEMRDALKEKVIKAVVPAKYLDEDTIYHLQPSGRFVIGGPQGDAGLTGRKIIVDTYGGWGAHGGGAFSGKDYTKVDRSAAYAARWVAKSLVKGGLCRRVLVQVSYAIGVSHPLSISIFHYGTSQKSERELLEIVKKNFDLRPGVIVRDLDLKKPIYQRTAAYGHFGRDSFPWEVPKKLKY
Test: Phosphate Sensor Fluorescence Assay (MAT2A enzyme inhibition)
Format: biochemical
Conditions: L-methionine 500 uM, ATP 500 uM, class symbols

// solved cases for IC50 follow
Request: Tell me measured IC50 for `O=c1[nH]c(=O)n(-c2cccnc2)c2nc(C(F)(F)F)ccc12` please.
Response: < 0.2 µM

Request: Input `CN(C)CCCNc1nc(=O)n(-c2ccccc2Cl)c2nc(C(F)(F)F)ccc12` , output reported IC50.
Response: 1 to 10 µM

Request: Supply IC50 value. Item: `CNc1nc(=O)n(-c2ccccc2OC)c2cc(Cl)ccc12`
Response: < 0.2 µM

Request: Let me know recorded IC50 for `CNc1nc(=O)n(-c2ccccc2)c2cc(C(F)F)ccc12` , thanks.
Response: < 0.2 µM

Query compound follows.
Request: Check the records and state IC50 for `Nc1nc(=O)n(-c2ccccc2)c2cc(Br)ccc12`
Response: < 0.2 µM

----------
Biological target: hMAT2A (Homo sapiens (Human))
Assay: Phosphate Sensor Fluorescence Assay (MAT2A enzyme inhibition)
Type: biochemical
Conditions: L-methionine 500 uM, ATP 500 uM, class symbols
Reported IC50 values are given for each entry in this list.

Study these solved cases before continuing.
Request: Answer with the recorded IC50 for the compound listed here: CNc1nc(=O)n(-c2cc(O)ccc2C)c2cc(Cl)ccc12 [Example 109]
Response: < 0.2 µM

Request: State its IC50: O=c1nc(N2CCCC2)c2ccc(C3CC3)cc2n1-c1ccccc1 [Example 386]
Response: < 0.2 µM

Request: Indicate the recorded IC50 value for this compound: O=c1nc(NC2CCC2)c2ccc(C(F)(F)F)nc2n1-c1ccccc1Cl [Example 320]
Response: < 0.2 µM

Further cases:
Request: Indicate the recorded IC50 value for this compound: O=c1nc(N[C@@H]2CC[C@@H]2O)c2ccc(C(F)(F)F)nc2n1-c1ccccc1Cl (atropisomer, axis not shown; (Sa)) [Example 335]
Response: < 0.2 µM

Request: Name the recorded IC50 of the item CN(C)c1nc(=O)n(-c2cccc(CCCc3ccccc3)c2)c2cc(Cl)ccc12 [Example 227] in your answer.
Response: < 0.2 µM

Request: Output IC50 of CNc1nc(=O)n(-c2cccc(Br)c2)c2cc(Cl)ccc12 [Example 401]
Response: 0.2 to 0.5 µM

Request: Dear colleague, please send me the reported IC50 for O=c1nc(NC2CC3(CCC3)C2)c2ccc(C(F)(F)F)nc2n1-c1ccccc1Cl [Example 245] when you can.
Response: < 0.2 µM

Request: Return IC50 for the following compound: COC1CCN(c2nc(=O)n(-c3ccccc3)c3cc(Cl)ccc23)C1 (stereo not drawn) [Example 230]
Response: < 0.2 µM

Request: Retrieve IC50 measured for O=c1nc(N[C@H]2C[C@H](O)C2)c2ccc(C(F)(F)F)nc2n1-c1ccccc1Cl [Example 334] and print it.
Response: < 0.2 µM

Request: Using known records, supply IC50 for O=c1nc(N2CC(O)C2)c2ccc(C(F)(F)F)nc2n1-c1ccccc1 [Example 171]
Response: < 0.2 µM

Request: In one line, give reported IC50 of the entry CNc1nc(=O)n(-c2ccccc2Cl)c2cc(C(F)(F)F)c(Br)cc12 [Example 302] .
Response: < 0.2 µM

Request: Retrieve IC50 measured for O=c1nc(Nc2ccncc2)c2ccc(C(F)(F)F)nc2n1-c1ccccc1Cl [Example 421] and print it.
Response: < 0.2 µM

Request: Look up and report measured IC50 for this entry: O=c1nc(N2CC[C@@H](O)C2)c2ccc(Cl)cc2n1-c1ccc2[nH]cnc2c1 [Example 281]
Response: < 0.2 µM
